Data provenance is PubChem BioAssay (NCI).

# Tested on: SF-539 CNS
# assay text: NCI tumour cell line growth inhibition, 48 h

compound | measured target | value unit | comparative sign | TGI
Cc1cc(C)nc(NC(N)=NCCc2ccccc2)n1 | SF-539 CNS | µM | = | 26.2
O=C(O)CSCc1cccc2ccccc12 | SF-539 CNS | µM | > | 100
CCOC(=O)c1ccc(N=NN(C)C(=O)C(C)N)cc1 (configuration not stated) | SF-539 CNS | µM | > | 100
COc1c2c(c3c(c1C1OC(C)[C@@H](C)O1)CC(C)(C)O3)C(=O)c1ccccc1C2=O (some centres not stated) | SF-539 CNS | µM | > | 100
COc1ccc(C#Cc2ccccc2C#CCCCCO)cc1 | SF-539 CNS | µM | = | 42.8
CN(C)CCCOc1ccccc1NC1=C(Cl)C(=O)C(Nc2ccccc2OCCCN(C)C)=C(Cl)C1=O | SF-539 CNS | µM | = | 3.04
CCCNC1CC(n2cc(C)c(=O)[nH]c2=O)OC1CO (configuration not stated) | SF-539 CNS | µM | > | 100
